assay: Half life in rat at 3 mg/kg, iv and 10 mg/kg, po; format: ADME, organism-based; settings: in vivo
Entries and their half-life
Lab note: write values as number then unit, every time.

- Given Smiles: "CC(C)[C@@](C)(O)[C@@H]1CN(c2nc(-c3n[nH]c4ncccc34)c(F)cc2F)CCN1"
  half-life: "1.7 h"
- Given Smiles: "CC(C)[C@@](C)(O)[C@@H]1CN(c2nc(-c3n[nH]c4ncccc34)c(F)cc2Cl)CCN1"
  half-life: "4.7 h"

Please fill in: half-life reported for CC(C)[C@@](C)(O)[C@@H]1CN(c2ccc(F)c(-c3n[nH]c4ncccc34)n2)CCN1 = 2.6 h
